measurementType: melting point

In: Give the measured melting point of CCOC(=O)c1cccc(Cc2c(C(=O)OCC)n(Cc3cc4c(cc3CC)OCO4)c3ccc(OCC(C)C)cc3c2=O)c1 .
Out: 129 to 132 °C

Further cases:
In: Sample CCc1cc2c(cc1Cn1c(C(=O)O)c(Cc3cccc(C(=O)O)c3)c(=O)c3cc(OC(C)C)ccc31)OCO2 — what was its melting point?
Out: 199 to 200 °C

In: Same question, CCc1cc2c(cc1Cn1c(C(=O)O)c(Cc3cccc(C(=O)O)c3)c(=O)c3cc(OCC(C)C)ccc31)OCO2 this time
Out: 185 to 186 °C

In: How about CCCCCOc1ccc2c(c1)c(=O)c(Cc1cccc(C(=O)O)c1)c(C(=O)O)n2Cc1cc2c(cc1CC)OCO2 ?
Out: 152 to 155 °C

In: Please answer likewise for CCc1cc2c(cc1Cn1c(C(=O)O)c(Cc3cccc(C(=O)O)c3)c(=O)c3cc(OCC4CC4)ccc31)OCO2
Out: 229 to 231 °C

In: Next entry: CCCCOc1ccc2c(c1)c(=O)c(Cc1cccc(C(=O)OCC)c1)c(C(=O)OCC)n2Cc1cc2c(cc1CC)OCO2
Out: 147 to 150 °C

In: // repeat for CCCCCOc1ccc2c(c1)c(=O)c(Cc1cccc(C(=O)OCC)c1)c(C(=O)OCC)n2Cc1cc2c(cc1CC)OCO2 and report
Out: 98 to 99 °C
